Tested on: nutsedge, yellow
Test: Test C pre-/postemergence herbicide test
Assay type: in vivo, Cyperus esculentus
Conditions: Preemergence, 125 g ai/ha; scale 0 to 100 (0 no effect, 100 complete control)
measured property: Plant response rating, Nutsedge, Yellow

[[record]]
compound = "O=C1NCC(c2ccc(C(F)(F)F)c(F)c2)C1C(=O)Nc1ccccc1F (racemic)"
system_tested = "nutsedge, yellow"
data_value = 100

[[record]]
compound = "O=C1NCC(c2cc(F)cc(F)c2)C1C(=O)Nc1cccc(F)c1F (racemic)"
system_tested = "nutsedge, yellow"
data_value = 0

[[record]]
compound = "O=C1NCC(c2cccc(C(F)(F)F)c2)C1C(=O)Nc1ccccc1Cl (racemic)"
system_tested = "nutsedge, yellow"
data_value = 0

[[record]]
compound = "O=C1NCC(c2cccc(Br)c2)C1C(=O)Nc1ccccc1F (stereo not drawn)"
system_tested = "nutsedge, yellow"
data_value = 0

[[record]]
compound = "O=C1NCC(c2ccc(C(F)(F)F)nc2)C1C(=O)Nc1cccc(F)c1F (racemic)"
system_tested = "nutsedge, yellow"
data_value = 100

[[record]]
compound = "O=C1NCC(c2ccc(F)c(Cl)c2)C1C(=O)Nc1cccc(F)c1F (stereo not drawn)"
system_tested = "nutsedge, yellow"
data_value = 0

[[record]]
compound = "O=C1NCC(c2ccc(C(F)(F)F)cc2)C1C(=O)Nc1ccccc1Cl (stereo not drawn)"
system_tested = "nutsedge, yellow"
data_value = 0

[[record]]
compound = "O=C1NCC(c2ccc(F)cc2)C1C(=O)Nc1ccccc1F (racemic)"
system_tested = "nutsedge, yellow"
data_value = 0

[[record]]
compound = "O=C1NCC(c2cccc(OC(F)(F)F)c2)C1C(=O)Nc1cccc(F)c1F (stereo not drawn)"
system_tested = "nutsedge, yellow"
data_value = 10

[[record]]
compound = "O=C1NCC(c2ccc(C(F)(F)F)cc2)C1C(=O)Nc1ccc(F)c(F)c1F (stereo not drawn)"
system_tested = "nutsedge, yellow"
data_value = 0

[[record]]
compound = "O=C1NCC(c2ccc(F)c(C(F)(F)F)c2)C1C(=O)Nc1ccccc1F (racemic)"
system_tested = "nutsedge, yellow"
data_value = 20

[[record]]
compound = "O=C1NCC(c2ccccc2)C1C(=O)Nc1ccccc1F (racemic)"
system_tested = "nutsedge, yellow"
data_value = 0


---

Reported Plant response rating (scale of 0 to 100), Johnsongrass values for a set of molecules
System: johnsongrass
Experiment: Test C pre-/postemergence herbicide test
Assay type: in vivo, Sorghum halepense
Conditions: Preemergence, 250 g ai/ha
measured property: Plant response rating (scale of 0 to 100), Johnsongrass

[[record]]
molecule = "Cc1cccc(NC(=O)C2C(=O)NCC2c2cccc(C(F)(F)F)c2)c1 (stereo not drawn) [Compound 317]"
data_value = 30

[[record]]
molecule = "O=C1NCC(c2cc(F)cc(F)c2)C1C(=O)Nc1ccc(F)cc1F (racemic) [Compound 278]"
data_value = 0

[[record]]
molecule = "O=C1NCC(c2ccc(F)c(C(F)(F)F)c2)C1C(=O)Nc1ccccc1F (racemic) [Compound 76]"
data_value = 80

[[record]]
molecule = "O=C1NCC(c2cc(F)cc(F)c2)C1C(=O)Nc1cccc(F)c1F (racemic) [Compound 279]"
data_value = 80

[[record]]
molecule = "O=C1NCC(c2cccc(OC(F)F)c2)C1C(=O)Nc1cccc(F)c1F (stereo not drawn) [Compound 324]"
data_value = 85

[[record]]
molecule = "O=C1NCC(c2ccc(C(F)(F)F)nc2)C1C(=O)Nc1ccccc1F (racemic) [Compound 262]"
data_value = 0


---

Test system: ducksalad
Experiment: Test B flooded paddy test
Format: in vivo, Heteranthera limosa
Conditions: 250 g ai/ha, Flood; scale of 0 to 100 where 0 is no effect and 100 is complete control
Could you please mark true for values of Plant response rating, Ducksalad below 80 and false for values at or above it?

[[record]]
compound = "COc1ncccc1NC(=O)C1C(=O)NCC1c1ccc(F)c(F)c1 (centres unmarked)"
discrete_label = "true"

[[record]]
compound = "O=C1NCC(c2ccc(Cl)nc2)C1C(=O)Nc1ccccc1C(F)(F)F (centres unmarked)"
discrete_label = "true"

[[record]]
compound = "O=C1NCC(c2cc(F)c(F)c(F)c2)C1C(=O)Nc1ccccc1C(F)(F)F (racemic)"
discrete_label = "false"

[[record]]
compound = "O=C1NCC(c2ccc(Cl)c(F)c2)C1C(=O)Nc1ccccc1F (centres unmarked)"
discrete_label = "false"

[[record]]
compound = "O=C1NCC(c2ccccc2)C1C(=O)Nc1ccccc1F (racemic)"
discrete_label = "true"

[[record]]
compound = "O=C1NCC(c2cccc(OC(F)(F)F)c2)C1C(=O)Nc1cccc(F)c1F (centres unmarked)"
discrete_label = "false"


---

Tested on: oilseed rape
Test: Test C pre-/postemergence herbicide test
Type: in vivo, Brassica napus
Details: Preemergence, 250 g ai/ha
measured property: Plant response rating (scale of 0 to 100), Oilseed Rape

[[record]]
compound = "O=C1NCC(c2cccc(C(F)(F)F)c2)C1C(=O)Nc1ccc(F)cc1F (racemic)"
data_value = 80

[[record]]
compound = "O=C1NCC(c2ccc(C(F)(F)F)c(F)c2)C1C(=O)Nc1ccccc1F (racemic)"
data_value = 30

[[record]]
compound = "O=C1NCC(c2cccc(C(F)(F)F)c2)C1C(=O)Nc1ccc(F)c(F)c1F (centres unmarked)"
data_value = 80

[[record]]
compound = "O=C1NCC(c2ccc(F)cc2)C1C(=O)Nc1cccc(F)c1F (racemic)"
data_value = 80

[[record]]
compound = "O=C(Nc1ccccc1F)C1C(=S)NCC1c1cccc(C(F)(F)F)c1 (centres unmarked)"
data_value = 30

[[record]]
compound = "O=C1NCC(c2cccc(OC(F)F)c2)C1C(=O)Nc1ccc(F)c(F)c1F (centres unmarked)"
data_value = 90

[[record]]
compound = "O=C1NCC(c2ccc(C(F)(F)F)nc2)C1C(=O)Nc1ccccc1F (racemic)"
data_value = 70

[[record]]
compound = "Cc1cccc(NC(=O)C2C(=O)NCC2c2cccc(C(F)(F)F)c2)c1 (centres unmarked)"
data_value = 0


---

Crabgrass, Large plant response rating for assorted molecules
Test system: crabgrass, large
Test: Test C pre-/postemergence herbicide test
Assay type: in vivo, Digitaria sanguinalis
Conditions: Preemergence, 31 g ai/ha; scale 0 to 100, 0 is no effect and 100 is complete control
measured property: Crabgrass, Large plant response rating

[[record]]
molecule = "O=C1NCC(c2cc(F)cc(F)c2)C1C(=O)Nc1ccc(F)cc1F (racemic)"
measured_property = "Crabgrass, Large plant response rating"
data_value = 90

[[record]]
molecule = "O=C1NCC(c2cccc(OC(F)(F)F)c2)C1C(=O)Nc1cccc(F)c1F (stereo not shown)"
measured_property = "Crabgrass, Large plant response rating"
data_value = 90

[[record]]
molecule = "O=C1NCC(c2cccc(C(F)(F)F)c2)C1C(=O)Nc1ccccc1Cl (racemic)"
measured_property = "Crabgrass, Large plant response rating"
data_value = 95

[[record]]
molecule = "CN1CC(c2ccc(C(F)(F)F)cc2)C(C(=O)Nc2ccccc2F)C1=O (stereo not shown)"
measured_property = "Crabgrass, Large plant response rating"
data_value = 95

[[record]]
molecule = "O=C1NCC(c2ccc(C(F)(F)F)c(F)c2)C1C(=O)Nc1cccc(F)c1F (racemic)"
measured_property = "Crabgrass, Large plant response rating"
data_value = 95

[[record]]
molecule = "O=C1NCC(c2cccc(OC(F)F)c2)C1C(=O)Nc1ccc(F)c(F)c1F (stereo not shown)"
measured_property = "Crabgrass, Large plant response rating"
data_value = 95

[[record]]
molecule = "O=C1NCC(c2ccc(C(F)(F)F)cc2)C1C(=O)Nc1ccc(F)c(F)c1F (stereo not shown)"
measured_property = "Crabgrass, Large plant response rating"
data_value = 85

[[record]]
molecule = "CN1CC(c2ccc(F)cc2)C(C(=O)Nc2cccc(F)c2F)C1=O (stereo not shown)"
measured_property = "Crabgrass, Large plant response rating"
data_value = 95

[[record]]
molecule = "O=C1NCC(c2ccc(F)c(C(F)(F)F)c2)C1C(=O)Nc1ccccc1C(F)(F)F (racemic)"
measured_property = "Crabgrass, Large plant response rating"
data_value = 95

[[record]]
molecule = "Cc1cccc(NC(=O)C2C(=O)NCC2c2cccc(C(F)(F)F)c2)c1 (stereo not shown)"
measured_property = "Crabgrass, Large plant response rating"
data_value = 95


---

Test system: wheat (winter wheat)
Assay: Test C pre-/postemergence herbicide test
Type: in vivo, Triticum aestivum
Details: Preemergence, 62 g ai/ha; scale 0 to 100 (0 no effect, 100 complete control)
measured property: Wheat plant response rating

[[record]]
molecule = "O=C1NCC(c2ccc(C(F)(F)F)nc2)C1C(=O)Nc1ccccc1F (racemic)"
measured_property = "Wheat plant response rating"
data_value = 0

[[record]]
molecule = "O=C1NCC(c2cccc(C(F)(F)F)c2)C1C(=O)Nc1ccccc1Cl (stereo not drawn)"
measured_property = "Wheat plant response rating"
data_value = 30

[[record]]
molecule = "O=C1NCC(c2cccc(C(F)(F)F)c2)C1C(=O)Nc1ccc(F)c(F)c1F (stereo not drawn)"
measured_property = "Wheat plant response rating"
data_value = 50

[[record]]
molecule = "O=C1NCC(c2cc(F)cc(F)c2)C1C(=O)Nc1ccc(F)cc1F (racemic)"
measured_property = "Wheat plant response rating"
data_value = 0

[[record]]
molecule = "O=C1NCC(c2cccc(C(F)(F)F)c2)C1C(=O)Nc1ccc(F)cc1F (racemic)"
measured_property = "Wheat plant response rating"
data_value = 0

[[record]]
molecule = "O=C1NCC(c2ccc(C(F)(F)F)cc2)C1C(=O)Nc1ccccc1Cl (stereo not drawn)"
measured_property = "Wheat plant response rating"
data_value = 0

